Test: Metabolic stability in dog liver microsomes assessed as compound remaining at 1 uM after 30 mins in presence of NADPH by LC-MS/MS analysis
Type: ADME, Canis lupus familiaris
Conditions: read-out: Stability
Mark met only when remaining at 0.5 h, 1 µM stays strictly below 20%. Values equal to the cut-off are not met.

{"SMILES STRING": "CN(C)CCCOc1ccc(/C(=C(/CCCO)c2ccccc2)c2ccc(O)cc2)cc1.Cl", "LABEL CLASS": "met"}
{"SMILES STRING": "Cc1ccc(/C(=C(\\CCCO)c2ccccc2)c2ccc(OCCN(C)C)cc2)cc1.Cl", "LABEL CLASS": "met"}
{"SMILES STRING": "CN(C)CCOc1ccc(/C(=C(/CCCF)c2ccccc2)c2ccc(O)cc2)cc1.Cl", "LABEL CLASS": "not met"}

Consider the molecule `CCN(CC)CCOc1ccc(/C(=C(/CCCO)c2ccccc2)c2ccc(O)cc2)cc1.Cl` . Is its remaining at 0.5 h, 1 µM strictly less than 20%? not met

For this molecule, is remaining at 0.5 h, 1 µM lower than 20%? `CN(C)CCOc1ccc(/C(=C(/CCCO)c2ccccc2)c2ccc(Br)cc2)cc1.Cl` met

Answer whether the molecule `CNCCOc1ccc(/C(=C(/CCCO)c2ccccc2)c2ccc(O)cc2)cc1.Cl` has remaining at 0.5 h, 1 µM strictly less than 20% not met

Consider `CN(C)CCOc1ccc(/C(=C(/CCC(F)F)c2ccccc2)c2ccc(O)cc2)cc1.Cl` . Does its remaining at 0.5 h, 1 µM lie strictly below 20%? not met
